- systemName: T1, midkine (AP-MK) (Homo sapiens, UniProt P21741 P21741:23-143)
- T1 chain: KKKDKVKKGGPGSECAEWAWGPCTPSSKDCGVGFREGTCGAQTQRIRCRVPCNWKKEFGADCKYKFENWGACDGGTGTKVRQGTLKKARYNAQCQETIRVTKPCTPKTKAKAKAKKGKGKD
- experimentalDetails: inhibition; AP-MK binding to HepG2 cells
- conditionNotes: tags: alkaline phosphatase fusion, APtag-5 vector (GenHunter), 293T culture supernatant
experimentalReadout: IC50 (nM)
Answers are plain numbers, in nM.

[
  {
    "binder": "GCCAUCGCAAUGGUGAGUGGUUUAUCCGCCUGCGCAUGGC (ssRNA, 3' idT; 2'-OMe at 1-13,16,17,19,20,23,28,30-40; 2'-F at U14,U18,U21,U22,U25,C26,C27,C29; 2'-OH at G15,A24) [SEQ ID NO: 7-9]",
    "IC50 [nM]": 4.7
  }
]

SEQ ID NO: 9 (mixed, 2'-OMe at 1-3 and 38-40; 2'-F at all other pyrimidines; 3' 16-nt poly dA (DNA)) RNA: GCCAUCGCAAUGGUGAGUGGUUUAUCCGCCUGCGCAUGGCAAAAAAAAAAAAAAAA yielded IC50 of 3.3

Every entry's value here was drawn from patent US20150353933.
